# Tested System: Nav1.2 (Homo sapiens, UniProt Q99250)
# Sequence (Q99250 whole entry): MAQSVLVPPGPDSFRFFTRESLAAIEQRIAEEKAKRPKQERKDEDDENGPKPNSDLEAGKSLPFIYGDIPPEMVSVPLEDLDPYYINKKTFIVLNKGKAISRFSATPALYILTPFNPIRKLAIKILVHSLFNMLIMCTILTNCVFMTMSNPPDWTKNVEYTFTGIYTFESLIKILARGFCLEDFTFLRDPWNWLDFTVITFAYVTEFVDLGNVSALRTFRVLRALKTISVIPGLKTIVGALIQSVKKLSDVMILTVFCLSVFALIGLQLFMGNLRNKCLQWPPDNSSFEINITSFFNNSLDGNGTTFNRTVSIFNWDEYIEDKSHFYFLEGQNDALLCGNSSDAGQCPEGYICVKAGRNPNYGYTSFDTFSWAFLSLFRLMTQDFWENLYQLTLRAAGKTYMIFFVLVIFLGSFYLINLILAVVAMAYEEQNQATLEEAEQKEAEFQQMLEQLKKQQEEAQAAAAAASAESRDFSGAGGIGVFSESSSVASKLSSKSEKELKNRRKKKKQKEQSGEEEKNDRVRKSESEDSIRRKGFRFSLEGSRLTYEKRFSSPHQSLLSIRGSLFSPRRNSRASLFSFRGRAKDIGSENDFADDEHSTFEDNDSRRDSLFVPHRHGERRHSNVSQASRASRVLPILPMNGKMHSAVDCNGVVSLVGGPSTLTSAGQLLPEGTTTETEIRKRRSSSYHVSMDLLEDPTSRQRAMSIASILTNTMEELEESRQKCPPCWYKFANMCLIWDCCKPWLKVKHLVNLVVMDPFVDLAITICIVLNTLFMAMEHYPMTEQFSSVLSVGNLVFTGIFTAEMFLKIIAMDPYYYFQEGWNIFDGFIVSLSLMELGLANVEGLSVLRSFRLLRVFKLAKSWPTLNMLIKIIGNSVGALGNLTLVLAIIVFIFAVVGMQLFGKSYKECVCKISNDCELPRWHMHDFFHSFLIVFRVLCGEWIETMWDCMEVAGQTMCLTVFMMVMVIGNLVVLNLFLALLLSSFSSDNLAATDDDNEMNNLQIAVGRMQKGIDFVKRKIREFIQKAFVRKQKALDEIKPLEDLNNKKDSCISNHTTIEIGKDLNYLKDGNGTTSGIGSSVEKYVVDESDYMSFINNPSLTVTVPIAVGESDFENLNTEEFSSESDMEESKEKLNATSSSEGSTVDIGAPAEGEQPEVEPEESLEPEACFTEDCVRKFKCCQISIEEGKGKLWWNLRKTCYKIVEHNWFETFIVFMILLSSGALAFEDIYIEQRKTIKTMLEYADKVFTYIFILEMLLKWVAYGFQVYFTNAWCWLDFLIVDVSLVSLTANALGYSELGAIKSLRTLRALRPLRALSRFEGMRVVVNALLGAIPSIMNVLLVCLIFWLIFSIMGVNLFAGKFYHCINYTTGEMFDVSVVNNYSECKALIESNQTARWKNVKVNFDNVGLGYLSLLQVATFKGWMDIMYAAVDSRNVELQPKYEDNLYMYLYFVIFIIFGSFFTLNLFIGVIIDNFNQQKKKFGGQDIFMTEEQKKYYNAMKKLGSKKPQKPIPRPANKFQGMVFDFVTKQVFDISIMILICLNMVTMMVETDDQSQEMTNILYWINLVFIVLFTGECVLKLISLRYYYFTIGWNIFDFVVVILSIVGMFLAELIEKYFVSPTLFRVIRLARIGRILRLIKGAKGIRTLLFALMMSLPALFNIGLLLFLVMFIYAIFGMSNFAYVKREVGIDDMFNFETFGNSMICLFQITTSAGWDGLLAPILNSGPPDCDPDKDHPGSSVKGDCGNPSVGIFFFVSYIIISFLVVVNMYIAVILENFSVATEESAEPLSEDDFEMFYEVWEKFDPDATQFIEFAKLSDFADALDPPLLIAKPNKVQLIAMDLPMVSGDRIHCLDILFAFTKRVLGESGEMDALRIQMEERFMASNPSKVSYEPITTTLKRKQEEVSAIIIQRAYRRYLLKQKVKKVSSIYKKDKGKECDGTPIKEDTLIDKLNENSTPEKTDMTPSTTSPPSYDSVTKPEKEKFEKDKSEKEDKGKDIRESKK
# Run Description: Selectivity for other ion channels: Nav1.2
# Assay type: cell-based
Property Label: IC50
Answer with the number, then the unit.

-- ask Which IC50 is listed for Cc1cc(N2CCN(Cc3cc(F)c(C(=O)NS(=O)(=O)C4CC4)cc3Cl)CC2)ccc1Cl [the free base of formula X compound] ?
-- reply 9600 nM

* * *

# Run Description: Stability experiment (storage of crystal forms, HPLC)
# Format: physicochemical
# Particulars: 60° C. 7 d
As shown below, each of these compounds has a reported Content (%) value.
Answer with the number, then the unit.

-- ask Which Content (%) is listed for Cc1cc(N2CCN(Cc3cc(F)c(C(=O)NS(=O)(=O)C4CC4)cc3Cl)CC2)ccc1Cl [crystal form A] ?
-- reply 98.6%

-- ask Further, for Cc1cc(N2CCN(Cc3cc(F)c(C(=O)NS(=O)(=O)C4CC4)cc3Cl)CC2)ccc1Cl [crystal form D] ?
-- reply 98.9%

-- ask Further, for Cc1cc(N2CCN(Cc3cc(F)c(C(=O)NS(=O)(=O)C4CC4)cc3Cl)CC2)ccc1Cl [crystal form E-3] ?
-- reply 99.5%

-- ask Further, for Cc1cc(N2CCN(Cc3cc(F)c(C(=O)NS(=O)(=O)C4CC4)cc3Cl)CC2)ccc1Cl [crystal form F] ?
-- reply 99.7%

* * *

# Run Description: Stability experiment (storage of crystal forms, HPLC)
# Format: physicochemical
# Particulars: 5° C. 0 d
As shown below, each of these molecules has a reported Total impurities (%) value.
Write down the numeric answer in % and omit the unit.

// worked examples, Total impurities (%) included
1) Cc1cc(N2CCN(Cc3cc(F)c(C(=O)NS(=O)(=O)C4CC4)cc3Cl)CC2)ccc1Cl [crystal form E-3] ... 0.26
2) Cc1cc(N2CCN(Cc3cc(F)c(C(=O)NS(=O)(=O)C4CC4)cc3Cl)CC2)ccc1Cl [crystal form D] ... 0.11
3) Cc1cc(N2CCN(Cc3cc(F)c(C(=O)NS(=O)(=O)C4CC4)cc3Cl)CC2)ccc1Cl [crystal form F] ... 0.14

Lab note: next molecule to report on.
-- ask Which Total impurities (%) is listed for Cc1cc(N2CCN(Cc3cc(F)c(C(=O)NS(=O)(=O)C4CC4)cc3Cl)CC2)ccc1Cl [crystal form A] ?
-- reply 0.16

* * *

# Tested System: hERG potassium ion channel (Homo sapiens, UniProt Q12809)
# Construct: host or cells: CHO (CHO hERG, passage P15)
# Sequence (Q12809 whole entry): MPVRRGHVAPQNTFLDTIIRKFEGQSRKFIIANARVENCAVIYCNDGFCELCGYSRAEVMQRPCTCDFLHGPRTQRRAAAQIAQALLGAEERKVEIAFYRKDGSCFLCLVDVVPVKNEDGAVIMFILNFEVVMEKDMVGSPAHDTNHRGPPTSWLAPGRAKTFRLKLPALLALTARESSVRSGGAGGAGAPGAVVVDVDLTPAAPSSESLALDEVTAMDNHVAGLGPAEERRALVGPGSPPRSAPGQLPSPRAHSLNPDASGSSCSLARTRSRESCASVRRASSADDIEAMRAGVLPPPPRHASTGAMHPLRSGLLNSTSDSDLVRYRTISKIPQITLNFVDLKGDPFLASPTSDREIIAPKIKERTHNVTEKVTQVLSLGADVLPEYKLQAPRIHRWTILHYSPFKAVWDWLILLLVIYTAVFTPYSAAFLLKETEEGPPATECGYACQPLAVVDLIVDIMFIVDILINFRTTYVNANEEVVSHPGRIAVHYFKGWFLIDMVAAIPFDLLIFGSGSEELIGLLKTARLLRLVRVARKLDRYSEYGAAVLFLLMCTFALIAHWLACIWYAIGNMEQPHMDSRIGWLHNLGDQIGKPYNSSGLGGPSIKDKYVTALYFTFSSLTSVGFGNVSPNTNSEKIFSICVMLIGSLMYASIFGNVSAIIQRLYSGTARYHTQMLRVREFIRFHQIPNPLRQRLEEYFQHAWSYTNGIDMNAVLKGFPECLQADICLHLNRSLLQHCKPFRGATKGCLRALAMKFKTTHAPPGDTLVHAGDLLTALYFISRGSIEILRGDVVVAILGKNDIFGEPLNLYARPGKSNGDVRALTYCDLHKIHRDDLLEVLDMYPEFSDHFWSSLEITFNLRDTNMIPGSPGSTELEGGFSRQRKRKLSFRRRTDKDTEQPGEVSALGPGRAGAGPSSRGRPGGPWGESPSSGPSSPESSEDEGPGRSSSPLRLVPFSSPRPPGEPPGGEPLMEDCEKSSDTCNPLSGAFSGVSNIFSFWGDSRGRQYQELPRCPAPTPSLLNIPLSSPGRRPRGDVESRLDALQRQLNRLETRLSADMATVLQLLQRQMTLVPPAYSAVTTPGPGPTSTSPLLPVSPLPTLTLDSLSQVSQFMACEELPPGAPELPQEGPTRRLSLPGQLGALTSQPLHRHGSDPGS
# Run Description: Effect on the hERG potassium ion channel (CHO hERG cells, manual patch clamp)
# Assay type: cell-based
# Particulars: read-out: hERG potassium ion channel (IC50/nM)
Property Label: IC50

-- ask Which IC50 is listed for Cc1cc(N2CCN(Cc3cc(F)c(C(=O)NS(=O)(=O)C4CC4)cc3Cl)CC2)ccc1Cl [the free base of formula X compound] ?
-- reply > 10000 nM

* * *

# Run Description: Stability experiment (storage of crystal forms, HPLC)
# Assay type: physicochemical
# Particulars: 60° C. 21 d
# Method: High performance liquid chromatography spectrum was acquired on an Agilent 1260 HPLC, the specific instrument and test parameters are shown in the table 18 below. Another set of samples were sealed at 5° C. and kept as a control at the same time. […]
Property Label: Total impurities (%)
Write down the numeric answer in % and omit the unit.

// worked examples, Total impurities (%) included
1. Cc1cc(N2CCN(Cc3cc(F)c(C(=O)NS(=O)(=O)C4CC4)cc3Cl)CC2)ccc1Cl [crystal form A] ... 0.18
2. Cc1cc(N2CCN(Cc3cc(F)c(C(=O)NS(=O)(=O)C4CC4)cc3Cl)CC2)ccc1Cl [crystal form F] ... 0.20
3. Cc1cc(N2CCN(Cc3cc(F)c(C(=O)NS(=O)(=O)C4CC4)cc3Cl)CC2)ccc1Cl [crystal form E-3] ... 0.30

Lab note: next compound to report on.
-- ask Which Total impurities (%) is listed for Cc1cc(N2CCN(Cc3cc(F)c(C(=O)NS(=O)(=O)C4CC4)cc3Cl)CC2)ccc1Cl [crystal form D] ?
-- reply 0.09
